target: Gamma-secretase (Homo sapiens) (UniProt Q96BI3+Q9NZ42+Q8WW43+P49768+Q92542+P49810); test: Inhibition of human gamma-secretase assessed as inhibition of amyloid beta 40 production using recombinant APP C100FLAG as substrate at 100 uM after 4 hrs by ELISA relative to control; format: protein-complex assay
Observation type: inhibition (%)

Consider the following illustrative entries.
| Compound | Obs value |
| --- | --- |
| Cn1c(=O)c(-c2c(Cl)cccc2Cl)cc2cnc(N3CCN(CC4CCCO4)CC3)nc21 (centres undefined) | 0 |
| Cn1c(=O)c(-c2c(Cl)cccc2Cl)cc2cnc(Nc3ccc(C(F)(F)F)cc3)nc21 | 12 |
| CC(C)Nc1ncc2cc(-c3c(Cl)cccc3Cl)c(=O)n(C)c2n1 | 0 |
| Cn1c(=O)c(-c2ccccc2)cc2cnc(N3CCN(c4ccc(F)cc4)CC3)nc21 | 14 |
| Cn1c(=O)c(-c2c(Cl)cccc2Cl)cc2cnc(Nc3ccccc3)nc21 | 26 |
| Cn1c(=O)c(-c2ccc(C(C)(C)C)cc2)cc2cnc(N3CCN(c4ccc(F)cc4)CC3)nc21 | 2 |
| Cn1c(=O)ccc2cnc(N3CCN(c4ccc(F)cc4)CC3)nc21 | 0 |
| Cn1c(=O)c(-c2c(Cl)cccc2Cl)cc2cnc(N3CCN(c4ncccn4)CC3)nc21 | 0 |

P: CN(CCc1ccccc1)c1ncc2cc(-c3c(Cl)cccc3Cl)c(=O)n(C)c2n1
Q: CN1CCN(c2ncc3cc(-c4c(Cl)cccc4Cl)c(=O)n(C)c3n2)CC1
R: CC(C)N(Cc1cc(F)cc(F)c1)c1ncc2cc(-c3c(Cl)cccc3Cl)c(=O)n(C)c2n1
S: Cn1c(=O)c(-c2c(F)cccc2F)cc2cnc(N3CCN(c4ccc(F)cc4)CC3)nc21
Arrange by inhibition, high to low. # list labels per requested ordering
R, P, S, Q

====

target: Gamma-secretase (Homo sapiens) (UniProt Q96BI3+Q9NZ42+Q8WW43+P49768+Q92542+P49810); experiment: Inhibition of human gamma-secretase assessed as inhibition of notch1 processing at 100 uM using N100Flag as substrate by western blot analysis; assay type: protein-complex assay
The source made the active and inactive calls. No cut-off for these calls is given here.
Pick from Yes = active, No = inactive when you respond.

Consider the following illustrative entries.
| Sample smiles | Discrete label |
| --- | --- |
| Cn1c(=O)c(-c2c(F)cccc2F)cc2cnc(N3CCN(c4ccc(F)cc4)CC3)nc21 | Yes |
| CCCCCCNc1ncc2cc(-c3c(Cl)cccc3Cl)c(=O)n(C)c2n1 | Yes |
| CN1CCN(c2ncc3cc(-c4c(Cl)cccc4Cl)c(=O)n(C)c3n2)CC1 | No |
| Cn1c(=O)c(-c2ccccc2)cc2cnc(N3CCN(c4ccc(F)cc4)CC3)nc21 | Yes |
| CSc1cccc(Nc2ncc3cc(-c4c(Cl)cccc4Cl)c(=O)n(C)c3n2)c1 | No |

What was the test verdict on CN(CCc1ccccc1)c1ncc2cc(-c3c(Cl)cccc3Cl)c(=O)n(C)c2n1 ?
No

Request: CC(C)N(Cc1ccc(Cl)c(Cl)c1)c1ncc2cc(-c3c(Cl)cccc3Cl)c(=O)n(C)c2n1
No

Next: CC(C)N(Cc1cc(F)cc(F)c1)c1ncc2cc(-c3c(Cl)cccc3Cl)c(=O)n(C)c2n1
Yes

Consider next the compound COc1ccc(Nc2ncc3cc(-c4c(Cl)cccc4Cl)c(=O)n(C)c3n2)cc1 in the same way.
No

Moving on to CC(C)Nc1ncc2cc(-c3c(Cl)cccc3Cl)c(=O)n(C)c2n1
No

Next compound: CSc1ccc(Nc2ncc3cc(-c4c(Cl)cccc4Cl)c(=O)n(C)c3n2)cc1
No

Item: Cn1c(=O)c(-c2c(Cl)cccc2Cl)cc2cnc(NCc3ccccn3)nc21
No

Now consider Cn1c(=O)c(-c2c(Cl)cccc2Cl)cc2cnc(N3CCN(c4ccc(F)cc4)CC3)nc21 and answer again.
No

Also, CC(C)N(Cc1ccccc1)c1ncc2cc(-c3c(Cl)cccc3Cl)c(=O)n(C)c2n1 please.
No
